Give solubility for every item shown.
testDetails: Solubility (Test F)
Type: physicochemical
testConditions: arithmetic mean if run multiple times
Answer in µM, number only, no unit symbol.

GET /values?readout=solubility&item= COc1cc(F)c(O[C@H]2CC[C@@](C)(C(=O)O)CC2)cc1C(=O)Nc1ccccc1C(=O)NCC(C)(C)C 6.5

GET /values?readout=solubility&item= COc1cc(F)c(O[C@H]2CC[C@@](C)(C(=O)O)CC2)cc1C(=O)N[C@@H]1[C@H]2CC[C@H](C2)[C@@H]1C(=O)N[C@H](C)C(C)(C)C 22

GET /values?readout=solubility&item= COc1cc(F)c(O[C@H]2CC[C@@H](C(=O)O)CC2)cc1C(=O)N[C@@H]1[C@@H]2C[C@@H]([C@H]3OCO[C@@H]23)[C@@H]1C(=O)Nc1cccc(S(=O)(=O)C(F)(F)F)c1 980

###

assaySystem: human RXFP1 (Homo sapiens, UniProt Q9HBX9)
Sequence (Q9HBX9 whole entry): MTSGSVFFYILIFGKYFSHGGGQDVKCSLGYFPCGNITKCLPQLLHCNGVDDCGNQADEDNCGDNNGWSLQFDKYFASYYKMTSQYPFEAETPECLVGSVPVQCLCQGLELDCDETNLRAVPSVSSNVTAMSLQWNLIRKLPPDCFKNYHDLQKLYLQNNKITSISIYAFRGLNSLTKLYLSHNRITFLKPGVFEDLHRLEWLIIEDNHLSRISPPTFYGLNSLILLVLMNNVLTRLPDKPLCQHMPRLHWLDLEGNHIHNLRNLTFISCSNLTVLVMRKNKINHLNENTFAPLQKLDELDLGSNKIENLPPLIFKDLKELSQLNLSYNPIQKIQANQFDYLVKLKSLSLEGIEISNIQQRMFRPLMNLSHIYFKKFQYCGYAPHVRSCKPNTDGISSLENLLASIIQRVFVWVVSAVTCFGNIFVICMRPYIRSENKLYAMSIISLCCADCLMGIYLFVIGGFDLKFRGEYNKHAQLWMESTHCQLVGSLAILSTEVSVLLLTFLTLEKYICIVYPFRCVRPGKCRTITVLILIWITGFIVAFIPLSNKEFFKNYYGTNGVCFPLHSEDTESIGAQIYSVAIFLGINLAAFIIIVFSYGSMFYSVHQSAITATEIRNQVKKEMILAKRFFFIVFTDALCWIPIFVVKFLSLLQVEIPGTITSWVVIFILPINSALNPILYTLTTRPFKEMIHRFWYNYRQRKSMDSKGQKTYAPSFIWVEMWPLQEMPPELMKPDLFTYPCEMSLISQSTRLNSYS
testDetails: RXFP1 Hu cAMP (Test A)
Type: cell-based
Set-up: expressed in transfected cells; host or cells: Jump-In T-REx CHO-K1 cells (ThermoFisher), induced with 10 ng/ml doxycycline for 24 h
testConditions: RXFP1 Hu cAMP; read-out: Test A EC50
Under this convention, MET denotes EC50 strictly below 0.1 µM and NOT MET denotes EC50 at or above 0.1 µM.

Say whether its EC50 is strictly beneath 0.1 µM. Entry: COc1cc(F)c(-c2ccc(CC(=O)O)cc2)cc1C(=O)N[C@H]1[C@@H](C(=O)Nc2cccc(S(=O)(=O)C(F)(F)F)c2)[C@@H]2C=C[C@H]1C2 (racemic) MET

Say whether its EC50 is strictly beneath 0.1 µM. Entry: CC1(CNC(=O)[C@H]2[C@@H]3CC[C@@H](C3)[C@H]2NC(=O)c2cc(O[C@H]3CC[C@@](C)(C(=O)O)CC3)c(Cl)cc2F)CCC1 MET

Say whether its EC50 is strictly beneath 0.1 µM. Entry: COc1cc(C#N)c(O[C@H]2CC[C@@](C)(C(=O)O)CC2)cc1C(=O)N[C@@H]1[C@H]2CC[C@H](C2)[C@@H]1C(=O)NC1CCCC1 NOT MET

Say whether its EC50 is strictly beneath 0.1 µM. Entry: COc1cc(F)c(-c2ccc([C@@H]3C[C@H]3C(=O)O)nc2)cc1C(=O)N[C@@H]1[C@H]2CC[C@H](C2)[C@@H]1C(=O)Nc1cccc(S(=O)(=O)C(F)(F)F)c1 (single isomer, unassigned) [Example 261] NOT MET

###

testDetails: Human Liver Microsomal Stability (Test C)
Type: in vitro ADME
testConditions: human, liver microsomes
measuredParameter: microsomal CLint (µL/min/mg)
Answer in µL/min/mg, number only, no unit symbol.

GET /values?readout=microsomal CLint&item= COc1cc(F)c(-c2cccc(C(=O)O)c2)cc1C(=O)N[C@H]1[C@@H](C(=O)Nc2ccc(F)c(S(=O)(=O)C(F)(F)F)c2)[C@@H]2C=C[C@H]1C2 (racemic) 9.1

GET /values?readout=microsomal CLint&item= COc1cc(F)c(-c2ccc(CC(=O)O)cc2)cc1C(=O)N[C@H]1[C@@H](C(=O)Nc2cccc(S(=O)(=O)C(F)(F)F)c2)[C@@H]2C=C[C@H]1C2 (racemic) 4.7

GET /values?readout=microsomal CLint&item= COc1cc(C#N)c(O[C@H]2CC[C@@](C)(C(=O)O)CC2)cc1C(=O)N[C@@H]1[C@H]2CC[C@H](C2)[C@@H]1C(=O)NCC1CCCCCC1 54

GET /values?readout=microsomal CLint&item= COc1cc(F)c(O[C@H]2CC[C@@H](C(=O)O)CC2)cc1C(=O)N[C@@H]1[C@@H]2CC[C@@H](C2)[C@@H]1C(=O)Nc1cccc(S(F)(F)(F)(F)F)c1 9.4

###

assaySystem: UniProt:Q9HBX9
testDetails: RXFP1 Hu cAMP (Test A)
Type: cell-based
Set-up: expressed in transfected cells; host or cells: Jump-In T-REx CHO-K1 cells (ThermoFisher), induced with 10 ng/ml doxycycline for 24 h
testConditions: RXFP1 Hu cAMP
measuredParameter: Test A Sinf (%)
Answer in %, number only, no unit symbol.

GET /values?readout=Test A Sinf&item= COc1cc(F)c(-c2cnn(CCC(=O)O)c2)cc1C(=O)N[C@@H]1[C@H]2CC[C@H](C2)[C@@H]1C(=O)Nc1cccc(S(=O)(=O)C(F)(F)F)c1 [Example 255] 101

GET /values?readout=Test A Sinf&item= COc1cc(F)c(O[C@H]2CC[C@@](C)(C(=O)O)CC2)cc1C(=O)N[C@H]1[C@@H](C(=O)NCC2(C)CCC2)[C@@H]2C=C[C@H]1C2 [Example 417] 102

GET /values?readout=Test A Sinf&item= COc1cc(F)c(-c2ccc(CCS(N)(=O)=O)cc2)cc1C(=O)N[C@H]1[C@H]2CC[C@H](C2)[C@H]1C(=O)Nc1cccc(S(=O)(=O)C(F)(F)F)c1 (single isomer, unassigned) [Example 326] 114

GET /values?readout=Test A Sinf&item= COc1cc(F)c(OCCCCCCC(=O)O)cc1C(=O)N[C@@H]1[C@H]2CC[C@H](C2)[C@@H]1C(=O)Nc1cccc(S(=O)(=O)C(F)(F)F)c1 [Example 436] 115

GET /values?readout=Test A Sinf&item= COc1cc(F)c(O[C@H]2CC[C@@](C)(C(=O)O)CC2)cc1C(=O)N[C@@H]1[C@H]2CC[C@H](C2)[C@@H]1C(=O)NC1CCCC1(C)C (relative stereo) [Example 503] 102

GET /values?readout=Test A Sinf&item= COc1cc(F)c(-c2cnc(C(=O)O)cn2)cc1C(=O)N[C@H]1[C@@H](C(=O)Nc2cccc(S(=O)(=O)C(F)(F)F)c2)[C@@H]2C=C[C@H]1C2 (racemic) [Example 276] 95

GET /values?readout=Test A Sinf&item= COc1cc(F)c(-c2ccc(C(=O)O)cc2)cc1C(=O)N[C@H]1[C@@H]2CC[C@@H](C2)[C@H]1C(=O)Nc1ccc(F)c(C(F)(F)F)c1 (single isomer, unassigned) [Example 591] 111

GET /values?readout=Test A Sinf&item= COc1cc(F)c(-c2ccc(C(=O)O)cc2)cc1C(=O)N[C@H]1[C@@H](C(=O)N[C@H]2CCCN(S(=O)(=O)C(F)(F)F)C2)[C@@H]2C=C[C@H]1C2 (racemic) [Example 311] 67

GET /values?readout=Test A Sinf&item= COc1cc(F)c(O[C@H]2CC[C@@](C)(C(=O)O)CC2)cc1C(=O)N[C@@H]1CCC[C@@H]1C(=O)NCC1(C)CCCCC1 [Example 64] 107

GET /values?readout=Test A Sinf&item= COc1cc(C#N)c(O[C@H]2CC[C@@](C)(C(=O)O)CC2)cc1C(=O)Nc1cc(Cl)ccc1C(=O)NCC1(F)CCC1 [Example 160] 125

GET /values?readout=Test A Sinf&item= COc1cc(F)c(O[C@H]2CC[C@@](C)(C(=O)O)CC2)cc1C(=O)N[C@@H]1[C@H]2CC[C@H](C2)[C@@H]1C(=O)NCC1(C#N)CCC1 [Example 595] 116

###

testDetails: Human Hepatocyte Stability (Test D)
Type: in vitro ADME
testConditions: human, cryopreserved pooled human hepatocytes (LiverPool 10-Donor), geometric mean if run multiple times
measuredParameter: hepatocyte CLint at 1 µM

GET /values?readout=hepatocyte CLint at 1 µM&item= CCC(CC)[C@@H](C)NC(=O)[C@H]1[C@@H]2CC[C@@H](C2)[C@H]1NC(=O)c1cc(O[C@H]2CC[C@@](C)(C(=O)O)CC2)c(F)cc1OC (single isomer, unassigned) [Example 145] 14 µL/min/1e6 cells

GET /values?readout=hepatocyte CLint at 1 µM&item= COc1cc(F)c(O[C@H]2CC[C@@](CO)(C(=O)O)CC2)cc1C(=O)N[C@@H]1[C@H]2CC[C@H](C2)[C@@H]1C(=O)NCC1(C(F)(F)F)CCC1 [Example 365] 9.3 µL/min/1e6 cells

GET /values?readout=hepatocyte CLint at 1 µM&item= COc1cc(F)c(O[C@H]2CC[C@@H](C(=O)O)CC2)cc1C(=O)N[C@@H]1[C@H]2CC[C@H](C2)[C@@H]1C(=O)Nc1ccc(F)c(C(F)(F)F)c1 [Example 179] 13 µL/min/1e6 cells

GET /values?readout=hepatocyte CLint at 1 µM&item= COc1cc(F)c(O[C@H]2CC[C@@H](C(=O)O)CC2)cc1C(=O)N[C@@H]1CCC[C@@H]1C(=O)Nc1cccc(S(=O)(=O)C(F)(F)F)c1 [Example 490] 17 µL/min/1e6 cells

GET /values?readout=hepatocyte CLint at 1 µM&item= COc1cc(C#N)c(O[C@H]2CC[C@@](C)(C(=O)O)CC2)cc1C(=O)N[C@H]1C(C(=O)NCC(C)(C)C)[C@@H]2CC[C@H]1C2 (stereo partly drawn) [Example 621] < 1.2 µL/min/1e6 cells

GET /values?readout=hepatocyte CLint at 1 µM&item= COc1cc(F)c(Oc2ccc(C(=O)O)cc2)cc1C(=O)N[C@H]1[C@@H](C(=O)Nc2cccc(S(=O)(=O)C(F)(F)F)c2)[C@@H]2C=C[C@H]1C2 (racemic) [Example 484] 7.2 µL/min/1e6 cells

GET /values?readout=hepatocyte CLint at 1 µM&item= COc1cc(C#N)c(O[C@H]2CC[C@@](C)(C(=O)O)CC2)cc1C(=O)NC1C2C=CC(CC2)C1C(=O)NCC1(C)CCC1 (single isomer, unassigned) [Example 540] 8.5 µL/min/1e6 cells

GET /values?readout=hepatocyte CLint at 1 µM&item= COc1cc(F)c(-c2ccc(C(=O)O)c(O)c2)cc1C(=O)N[C@@H]1[C@H]2CC[C@H](C2)[C@@H]1C(=O)Nc1cccc(S(=O)(=O)C(F)(F)F)c1 [Example 247] 9.5 µL/min/1e6 cells

GET /values?readout=hepatocyte CLint at 1 µM&item= COc1cc(F)c(O[C@H]2CC[C@@](C)(C(=O)O)CC2)cc1C(=O)N[C@@H]1[C@H]2CC[C@H](C2)[C@@H]1C(=O)NCC(C)(C)C#N [Example 47] < 1 µL/min/1e6 cells

GET /values?readout=hepatocyte CLint at 1 µM&item= CCC(CC)[C@H](C)NC(=O)[C@H]1[C@@H]2CC[C@@H](C2)[C@H]1NC(=O)c1cc(O[C@H]2CC[C@@](C)(C(=O)O)CC2)c(F)cc1OC (single isomer, unassigned) [Example 144] 17 µL/min/1e6 cells

GET /values?readout=hepatocyte CLint at 1 µM&item= COc1cc(F)c(O[C@H]2CC[C@@](C)(C(=O)O)CC2)cc1C(=O)Nc1ccccc1C(=O)NCC1(C)CCC1 [Example 143] 6.9 µL/min/1e6 cells

GET /values?readout=hepatocyte CLint at 1 µM&item= COc1cc(F)c(O[C@H]2CC[C@@](C)(C(=O)O)CC2)cc1C(=O)N[C@@H]1[C@H]2CC[C@H](C2)[C@@H]1C(=O)NCC1(F)CCOCC1 [Example 146] < 1 µL/min/1e6 cells

Reference for the values: patent US11667602B2
